Target: T1, human TM4SF1 (transmembrane-4 L six family member-1) (human, UniProt P30408 1-202)
T1 construct: also called hTM4SF1
T1 sequence: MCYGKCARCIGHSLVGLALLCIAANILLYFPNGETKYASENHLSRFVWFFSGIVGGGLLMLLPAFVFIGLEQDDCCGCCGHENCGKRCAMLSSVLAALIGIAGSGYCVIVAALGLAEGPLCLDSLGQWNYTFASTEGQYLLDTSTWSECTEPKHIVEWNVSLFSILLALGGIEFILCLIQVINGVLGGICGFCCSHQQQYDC
Assay: flow cytometry (MFI) on HUVEC
Here the recorded EC50 is given for each entry.
Express the result in nM but write the number alone.

- BINDER: "humanized mutated (hm) AGX-A07 H2L5 V2 (antibody, human IgG1, kappa, V domains shown, Full heavy and light chains; also called AGX-A07 H2v1L5v2) VH: EVQLVQSGAEVKKPGASVKVSCKASGYTFTNYGVKWVRQAPGQGLEWMGWINTYTGNPIYAADFKGRVTMTTDTSTSTAYMELRSLRSDDTAVYYCVRFQYGDYRYFDVWGQGTLVTVSS VL: EIVLTQSPATLSLSPGERATLSCRAQSGISFINWYQQKPGQAPRLLIYGTANLASGIPARFSGSGSGRDFTLTISSLEPEDFAVYYCQQWSSNPLTFGGGTKVEIKR"
  VALUE TYPE: "EC50"
  QUANTITATIVE RESULT: 1.64
- BINDER: "humanized mutated (hm) AGX-A07 H2L5 V1 (antibody, human IgG1, kappa, V domains shown, Full heavy and light chains) VH: EVQLVQSGAEVKKPGASVKVSCKASGYTFTNYGVKWVRQAPGQGLEWMGWINTYTGNPIYAADFKGRVTMTTDTSTSTAYMELRSLRSDDTAVYYCVRFQYGDYRYFDVWGQGTLVTVSS VL: EIVLTQSPATLSLSPGERATLSCRANSGISFINWYQQKPGQAPRLLIYGTANLASGIPARFSGSGSGRDFTLTISSLEPEDFAVYYCQQWSSNPLTFGGGTKVEIKR"
  VALUE TYPE: "EC50"
  QUANTITATIVE RESULT: 1.58
- BINDER: "humanized mutated (hm) AGX-A07 H2L5 V3 (antibody, human IgG1, kappa, V domains shown, Full heavy and light chains) VH: EVQLVQSGAEVKKPGASVKVSCKASGYTFTNYGVKWVRQAPGQGLEWMGWINTYTGNPIYAADFKGRVTMTTDTSTSTAYMELRSLRSDDTAVYYCVRFQYGDYRYFDVWGQGTLVTVSS VL: EIVLTQSPATLSLSPGERATLSCRANSGISFINWYQQKPGQAPRLLIYGTANLASGIPARFSGSGSGRDFTLTISSLEPEDFAVYYCQQYSSNPLTFGGGTKVEIKR"
  VALUE TYPE: "EC50"
  QUANTITATIVE RESULT: 4.19
- BINDER: "humanized mutated (hm) AGX-A07 H2L5 V4 (antibody, human IgG1, kappa, V domains shown, Full heavy and light chains; also called hm AGX-A07 V4) VH: EVQLVQSGAEVKKPGASVKVSCKASGYTFTNYGVKWVRQAPGQGLEWMGWINTYTGNPIYAADFKGRVTMTTDTSTSTAYMELRSLRSDDTAVYYCVRFQYGDYRYFDVWGQGTLVTVSS VL: EIVLTQSPATLSLSPGERATLSCRAQSGISFINWYQQKPGQAPRLLIYGTANLASGIPARFSGSGSGRDFTLTISSLEPEDFAVYYCQQYSSNPLTFGGGTKVEIKR"
  VALUE TYPE: "EC50"
  QUANTITATIVE RESULT: 46.1
- BINDER: "humanized AGX-A07 H2L5 (antibody, human IgG1, kappa, V domains shown, Full heavy and light chains; also called h AGX-A07 H2L5; hAGX-A07 H2L5) VH: QVQLVQSGAEVKKPGASVKVSCKASGYTFTNYGVKWVRQAPGQDLEWMGWINTYTGNPIYAADFKGRVTMTTDTSTSTAFMELRSLRSDDTAVYYCVRFQYGDYRYFDVWGQGTLVTVSS VL: EIILTQSPATLSLSPGERATLSCRANSGISFINWYQQKPGQAPRLLIYGTANLASGIPARFGGSGSGRDFTLTISSLEPEDFAVYYCQQWSSNPLTFGGGTKVEIKR"
  VALUE TYPE: "EC50"
  QUANTITATIVE RESULT: 1.53

Item: humanized AGX-A01 (antibody, human IgG1, kappa, V domains shown, also called h AGX-A01 H1L10; h AGX-A01) VH: EVQLVESGGGLVKPGGSLRLSCAASGFTFSSFAMSWVRQAPGKGLEWVSTISSGSIYIYYTDGVKGRFTISRDNAKNSLYLQMNSLRAEDTAVYYCARRGIYYGYDGYAMDYWGQGTLVTVSS VL: AIVLTQSPGTLSLSPGERATLSCRSSQSLVHSNGNTYLHWYMQKPGQAPRVLIYKVSNRFSGIPDRFSGSGSGTDFTLTISRLEPDDFAIYYCSQSTHIPLAFGQGTKLEIKR | EC50: 3.03
